# method: Solubility of the purified compounds in solvents
# Assay type: physicochemical
# conditions used: hexane
property label: Solubility in hexane

compound | reported result
CC(=O)c1c(C)c(C(=O)c2coc3cc(O)c(O)c(C(=O)O)c3c2=O)cc2c(=O)c3c(O)cc(O)c(O)c3oc12 | Insoluble
CC(=O)[C@]12c3c(cc(O)c(O)c3C(=O)O)OC[C@]13Cc1c(oc4cc(O)c(O)c(C(=O)O)c4c1=O)[C@H]2C(C)=C(O)C3=O (relative stereo) | Insoluble
CC12Cc3oc4cc(O)c(O)c(C(=O)O)c4c(=O)c3C(O1)C1C(=O)C3=C(OC1(C)O2)c1c(cc(O)c(O)c1C(=O)O)OC3 (stereo not drawn) | Insoluble

* * *

# experimental target: mouse semaphorin 3A (Sema3A) (Mus musculus, UniProt O08665)
# method: Suppressing action on the growth cone collapse activity of Sema3A in chick dorsal root ganglion culture
# conditions used: E7 chick embryo dorsal root ganglions; compound added 1 hour before 3 units/ml mouse Sema3A; growth cone collapse rate after another 1 hour
In this section we review reported IC50 values for a set of compounds.
property label: IC50 (nM)

compound | unit | reported result
Cc1cc(=O)c2c(o1)-c1c(c3c(c(O)c1C(=O)O)OC1(C)Cc4oc5cc(O)c(O)c(C(=O)O)c5c(=O)c4C3O1)OC2 (stereo not drawn) | nM | 3460
CC(=O)c1c2c(c3ccc4c(=O)c5c(C(=O)O)c(O)c(O)cc5oc4c3c1C)C(=O)C1(CC2)COc2cc(O)c(O)c(C(=O)O)c2C1=O (stereo not drawn) | nM | 19.9
CC(=O)c1c(C)c(-c2oc3cc(O)c(O)c(C(=O)O)c3c(=O)c2Cc2c(C)oc3c(c2=O)COc2cc(O)c(O)c(C(=O)O)c2-3)cc2c(=O)c3cc(O)c(O)cc3oc12 | nM | 78.1
CC(=O)[C@]12c3c(cc(O)c(O)c3C(=O)O)OC[C@]13Cc1c(oc4cc(O)c(O)c(C(=O)O)c4c1=O)[C@H]2C(C)=C(O)C3=O (relative stereo) | nM | 861
CC(=O)c1c(C)c(C(=O)c2coc3cc(O)c(O)c(C(=O)O)c3c2=O)cc2c(=O)c3c(O)cc(O)c(O)c3oc12 | nM | 912
CC12Cc3oc4cc(O)c(O)c(C(=O)O)c4c(=O)c3C(O1)C1C(=O)C3=C(OC1(C)O2)c1c(cc(O)c(O)c1C(=O)O)OC3 (stereo not drawn) | nM | 838

* * *

Form field: IC50 (one value per entry).
# experimental target: mouse semaphorin 3A (Sema3A) (Mus musculus)
# Sequence (O08665 21-772): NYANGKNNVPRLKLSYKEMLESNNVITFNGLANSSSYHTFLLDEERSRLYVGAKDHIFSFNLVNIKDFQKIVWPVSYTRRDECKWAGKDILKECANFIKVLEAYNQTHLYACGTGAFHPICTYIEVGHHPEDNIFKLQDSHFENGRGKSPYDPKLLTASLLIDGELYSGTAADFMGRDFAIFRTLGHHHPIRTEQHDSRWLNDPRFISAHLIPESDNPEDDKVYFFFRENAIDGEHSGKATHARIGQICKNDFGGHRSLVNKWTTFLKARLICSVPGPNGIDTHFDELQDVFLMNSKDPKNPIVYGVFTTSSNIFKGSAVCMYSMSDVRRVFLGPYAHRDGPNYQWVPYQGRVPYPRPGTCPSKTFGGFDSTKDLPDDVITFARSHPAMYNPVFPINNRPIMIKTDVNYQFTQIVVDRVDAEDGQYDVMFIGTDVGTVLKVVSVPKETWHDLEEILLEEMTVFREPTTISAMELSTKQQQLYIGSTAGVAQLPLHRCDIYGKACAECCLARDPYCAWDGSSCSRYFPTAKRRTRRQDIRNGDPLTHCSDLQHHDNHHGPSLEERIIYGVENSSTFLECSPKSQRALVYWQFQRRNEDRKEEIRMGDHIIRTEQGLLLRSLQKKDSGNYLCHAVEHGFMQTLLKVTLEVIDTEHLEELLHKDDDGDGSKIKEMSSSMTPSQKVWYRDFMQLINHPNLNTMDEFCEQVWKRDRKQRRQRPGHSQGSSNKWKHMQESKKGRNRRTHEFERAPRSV
# method: Suppressing action on the growth cone collapse activity of Sema3A in chick dorsal root ganglion culture
# Type: cell-based
# conditions used: E7 chick embryo dorsal root ganglions; compound added 1 hour before 3 units/ml mouse Sema3A; growth cone collapse rate after another 1 hour
# Method: The growth cone collapse activity of semaphorin described above means an activity to make growth cones disappear. […] In order to get the extended neurites and the growth cones at the edge of said neurites ready for the observation, the nerve cells are generally cultivated for 10 to 20 hours in vitro, which duration can be altered according to a nerve variant and culture conditions. […]
property label: IC50

compound | reported result
CC(=O)C1=C2c3cc(O)c(O)cc3OCC2(C(=O)/C=C(/C)O)Cc2c1oc1cc(O)c(O)c(C(=O)O)c1c2=O (stereo not drawn) | 233 nM
CC(=O)c1cc(-c2c(C(C)=O)cc3c(=O)c4c(C(=O)O)c(O)c(O)cc4oc3c2C(C)=O)cc(C(=O)c2c(O)cc(O)c(O)c2C(=O)O)c1O | 728 nM
CC1=Cc2oc3cc(O)c(O)c(C(=O)O)c3c(=O)c2C(c2c(C)oc3c(c2=O)COc2cc(O)c(O)c(C(=O)O)c2-3)O1 (stereo not drawn) | 225 nM
